B1: tRNA (parent)
chain: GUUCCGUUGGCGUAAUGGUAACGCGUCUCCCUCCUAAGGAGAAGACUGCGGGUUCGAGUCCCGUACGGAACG

# Variants of: B1
# assay_info: yeast fitness relative to wild type (ratio to wild type); higher = fitter; tRNA-Arg(CCU), competitive growth, 37 C, YPD
Variants at the floor of the assay were thinned out.
measured_metric: yeast fitness
Answers are plain numbers.

Batch lookup, yeast fitness per entry.
1. GUUCCCUUGGAGUAAUGGUAACGCGUCUCCCUCCUAAGGAGAAGACUGCGGGUUCGAGUCCCGUAGGGAACG [G6C C11A C66G]
2. GUUCCGUUGGAGAAAUGGUAACGCGUCUCCCUCCUAAGGAGAAGACUGCGGGUUCGAGUCCCGUACGGAACG [C11A U13A]
3. GUUCCGUUGGUGUAAUGGUAACGCGUCUUCCUCCUAAGGAGAAGACUGCGGGUUCGAGUCCCGUAAGGAACG [C11U C29U C66A]

// result
1: 0.592; 2: 0.603; 3: 0.553
